target: Full length human TNNI3K (hTNNI3K) (Homo sapiens, UniProt Q59H18); construct: His-MBP-TEV-Full length human TNNI3K (hTNNI3K); His (N); MBP (N); TEV cleavage site (N); made in house; host or cells: baculovirus system (printed 'Baculokinase system'); experiment: Fluorescent polarization assay of compound inhibition on hTNNI3K ATP binding (Biological Assay Method I); conditions: displacement of fluorescent ligand from hTNNI3K ATP binding pocket; mean of a minimum of 2 experiments; read-out: pXC50 (the source's name) (converted)
Structures can show the parent of a compound that is named as a salt.
Would you mind telling me the reported IC50 of each entry?

The compound "CNS(=O)(=O)c1ccc(N(C)C)c(Nc2ncnc3ccc(N)cc23)c1" showed IC50 equal to 10 to 100 nM

IC50 measured on CNS(=O)(=O)c1ccc(OC)c(Nc2ncnc3cc(OCCOC)c(OCCOC)cc23)c1 [Example 18, hydrochloride] = 10 to 100 nM

Lab note: CNS(=O)(=O)c1ccc(OCC(F)(F)F)c(Nc2ncnc3cc(OC)c(OC)c(OC)c23)c1 [Example 48, hydrochloride] gave IC50 of 1 to 10 nM

Lab book: IC50 of CNS(=O)(=O)c1ccc(OC)c(Nc2ncnc3cc(OC)cc(OC)c23)c1 [Example 37, hydrochloride] noted as 1 to 10 nM

Looking up CNS(=O)(=O)c1ccc(OCC(F)(F)F)c(Nc2ncnc3cc(OC)cc(OC)c23)c1 [Example 31, hydrochloride] , I see its IC50 listed as 1 to 10 nM

Memo: CNS(=O)(=O)c1ccc(OC(C)C(F)(F)F)c(Nc2ncnc3cc(OC)cc(OC(C)C)c23)c1 (stereo not shown) , reported IC50: 10 to 100 nM

Briefly, IC50 measured for "CCOc1cc(OC)cc2ncnc(Nc3cc(S(=O)(=O)NC)ccc3OCC(F)(F)F)c12" : 1 to 10 nM

* * *

Molecular target: Full length human TNNI3K (hTNNI3K) (Homo sapiens, UniProt Q59H18)
Construct: His-MBP-TEV-Full length human TNNI3K (hTNNI3K); His (N); MBP (N); TEV cleavage site (N); made in house; host or cells: baculovirus system (printed 'Baculokinase system')
Sequence (Q59H18 1-835): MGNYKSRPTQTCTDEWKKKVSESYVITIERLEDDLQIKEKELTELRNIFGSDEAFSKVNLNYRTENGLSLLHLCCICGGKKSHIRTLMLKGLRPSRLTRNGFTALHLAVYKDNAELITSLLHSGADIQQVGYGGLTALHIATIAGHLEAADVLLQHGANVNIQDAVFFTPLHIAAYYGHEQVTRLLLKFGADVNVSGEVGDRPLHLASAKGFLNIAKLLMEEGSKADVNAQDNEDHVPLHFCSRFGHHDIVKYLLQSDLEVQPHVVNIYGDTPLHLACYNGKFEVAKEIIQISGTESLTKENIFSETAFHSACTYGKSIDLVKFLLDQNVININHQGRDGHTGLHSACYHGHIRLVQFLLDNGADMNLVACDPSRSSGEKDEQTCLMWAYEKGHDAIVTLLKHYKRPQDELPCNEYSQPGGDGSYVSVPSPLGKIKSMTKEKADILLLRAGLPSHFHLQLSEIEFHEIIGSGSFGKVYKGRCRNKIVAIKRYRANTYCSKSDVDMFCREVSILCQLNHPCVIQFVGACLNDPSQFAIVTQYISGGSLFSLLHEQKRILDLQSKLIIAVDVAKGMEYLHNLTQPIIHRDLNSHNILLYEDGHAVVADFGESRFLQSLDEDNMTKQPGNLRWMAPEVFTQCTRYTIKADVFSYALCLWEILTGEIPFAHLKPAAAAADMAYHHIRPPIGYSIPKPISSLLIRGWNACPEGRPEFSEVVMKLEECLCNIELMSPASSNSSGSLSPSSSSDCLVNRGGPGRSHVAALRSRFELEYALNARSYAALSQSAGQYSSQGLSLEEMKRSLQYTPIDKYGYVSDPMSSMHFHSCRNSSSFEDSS
Experiment: Fluorescent polarization assay of compound inhibition on hTNNI3K ATP binding (Biological Assay Method I)
Conditions: displacement of fluorescent ligand from hTNNI3K ATP binding pocket; mean of a minimum of 2 experiments; read-out: pXC50 (the source's name) (converted)
Method: Materials: His-MBP-TEV-Full length human TNNI3K (hTNNI3K) was expressed in Baculokinase system and purified from amylase affinity column followed by Superdex200. […] Fifty (50) nL of inhibitors in DMSO (or DMSO controls) were stamped into a 384-well low volume Greiner black plate, followed by addition of 5 μL of Solution 1 to column 18 and 5 μL Solution 2 to columns 1-17 and 19-24 of the plate. […] After that, the fluorescent polarization was measured on Analyst (ex/em: 485/530 nm, Dichroic: 505). […]
Counter-ions that a name gives are not always drawn.
Exercise: state measured IC50 for each of the compounds provided.

// compound CNS(=O)(=O)c1ccc(OCC(F)(F)F)c(Nc2ncnc3cc(OCCOC)c(OC)cc23)c1 [Example 81, trifluoroacetate] , assay Full length human TNNI3K (hTNNI3K) (Homo sapiens, UniProt Q59H18), IC50 value: 10 to 100 nM

"CNS(=O)(=O)c1ccc(OCC(F)(F)F)c(Nc2ncnc3cc(OCCCOC)ccc23)c1" tested on Full length human TNNI3K (hTNNI3K) (Homo sapiens, UniProt Q59H18) gave IC50: 10 to 100 nM

Bench note, Full length human TNNI3K (hTNNI3K) (Homo sapiens, UniProt Q59H18): entry CNS(=O)(=O)c1ccc(S(C)(=O)=O)c(Nc2ncnc3cc(OC)cc(OC)c23)c1 [Example 77, trifluoroacetate] , its IC50 = 10 to 100 nM

# lookup: CNS(=O)(=O)c1ccc(Cl)c(Nc2ncnc3cc(OC)c(OC)c(OC)c23)c1 [Example 59, trifluoroacetate] on Full length human TNNI3K (hTNNI3K) (Homo sapiens, UniProt Q59H18), IC50 = 10 to 100 nM

The reported Full length human TNNI3K (hTNNI3K) (Homo sapiens, UniProt Q59H18) IC50 of CNS(=O)(=O)c1ccc(N(C)CC(F)(F)F)c(Nc2ncnc3cc(OC)cc(OC)c23)c1 [Example 36, hydrochloride] is 10 to 100 nM

The recorded IC50 with Full length human TNNI3K (hTNNI3K) (Homo sapiens, UniProt Q59H18) for CNS(=O)(=O)c1ccc(N(C)C)c(Nc2ncnc3cc(OC)c(OC)cc23)c1 [Example 1, hydrochloride] was 10 to 100 nM

Full length human TNNI3K (hTNNI3K) (Homo sapiens, UniProt Q59H18) assay, compound CNS(=O)(=O)c1ccc(N(C)C)c(Nc2ncnc3ccc(N(C)C)cc23)c1 [Example 86, bis(trifluoroacetate)] , recorded IC50 = 10 to 100 nM

Full length human TNNI3K (hTNNI3K) (Homo sapiens, UniProt Q59H18) assay, compound CNS(=O)(=O)c1cc(Nc2ncnc3cc(OC)cc(OC)c23)c(OC)cc1F [Example 51, trifluoroacetate] , recorded IC50 = 10 to 100 nM

The recorded IC50 with Full length human TNNI3K (hTNNI3K) (Homo sapiens, UniProt Q59H18) for CNS(=O)(=O)c1ccc(N2C(C)CCC2C)c(Nc2ncnc3cc(OC)c(OC)cc23)c1 (stereo not drawn) [Example 27, trifluoroacetate] was 1 to 10 nM

Reading of IC50 for CNS(=O)(=O)c1ccc(OC(C)C(F)(F)F)c(Nc2ncnc3cc(OC)cc(OC)c23)c1 (stereo not drawn) [Example 49, trifluoroacetate] with Full length human TNNI3K (hTNNI3K) (Homo sapiens, UniProt Q59H18): 1 to 10 nM

The recorded IC50 with Full length human TNNI3K (hTNNI3K) (Homo sapiens, UniProt Q59H18) for "CNS(=O)(=O)c1ccc(SC)c(Nc2ncnc3cc(OCCOC)c(OCCOC)cc23)c1" was 10 to 100 nM

Entry CNS(=O)(=O)c1cc(Nc2ncnc3cc(OC)cc(OC)c23)c(N(C)C)cc1F [Example 56, hydrochloride] : IC50 on Full length human TNNI3K (hTNNI3K) (Homo sapiens, UniProt Q59H18) = 1 to 10 nM

Fill in: Full length human TNNI3K (hTNNI3K) (Homo sapiens, UniProt Q59H18) IC50 for CNS(=O)(=O)c1ccc(N2CCCCC2)c(Nc2ncnc3ccc(Cl)cc23)c1 [Example 26, trifluoroacetate] = 10 to 100 nM

Bench note, Full length human TNNI3K (hTNNI3K) (Homo sapiens, UniProt Q59H18): entry "CNS(=O)(=O)c1ccc(OC(F)(F)F)c(Nc2ncnc3cc(OC)cc(OC(C)C)c23)c1" , its IC50 = 10 to 100 nM

Item "CCOc1cc2ncnc(Nc3cc(S(=O)(=O)NC)ccc3OCC(F)(F)F)c2cc1OCC" ; assay system Full length human TNNI3K (hTNNI3K) (Homo sapiens, UniProt Q59H18); IC50 reported as 1 to 10 nM
